Measured Flow data accompanies every entry in the list below.
Target: T1, mouse nectin-4 protein expressed on the surface of HEK 293 cells (mouse, UniProt Q8R007 31-508)
T1 construct: whole, on cells
T1 sequence (looked up): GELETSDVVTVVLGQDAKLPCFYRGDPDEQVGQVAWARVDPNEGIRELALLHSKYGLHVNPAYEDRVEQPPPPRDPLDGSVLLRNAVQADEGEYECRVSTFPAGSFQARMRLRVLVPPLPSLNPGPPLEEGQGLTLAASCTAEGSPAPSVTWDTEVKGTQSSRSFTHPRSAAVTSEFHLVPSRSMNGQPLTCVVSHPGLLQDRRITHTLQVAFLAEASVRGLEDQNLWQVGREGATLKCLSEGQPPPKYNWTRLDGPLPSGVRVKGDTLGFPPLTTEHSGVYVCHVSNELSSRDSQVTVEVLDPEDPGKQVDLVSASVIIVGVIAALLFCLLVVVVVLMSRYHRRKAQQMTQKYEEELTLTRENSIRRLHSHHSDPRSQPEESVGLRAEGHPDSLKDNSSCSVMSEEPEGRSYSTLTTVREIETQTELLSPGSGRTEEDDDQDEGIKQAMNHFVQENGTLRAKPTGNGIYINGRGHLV
Test: flow cytometry, HEK 293 cells overexpressing the target
Just the number.

binder	reported
Nectin-4 3C12H/3C12L (recombinant chimeric antibody) (antibody, V domains shown) VH: QVQLKQSGPGLVQPSQSLSITCTVSGFSLTTYGVHWVRQSPGKGLEWLGVIWSGGNTDYNAAFISRLSISKDNSKSQVFFKMNSLQADDTAIYYCARMTHWYFDVWGTGTTVTVSS VL: DIVMTQSQKFMSTTVGDRVSITCKASQNVVTAVAWYQQKPGQSPKLLIYSASNRYTGVPDRFTGSGSGTDFTLTISYMQSEDLADYFCQQYSSYPLTFGAGTKLELK	328
Nectin-4 12E11H/12E11L (recombinant chimeric antibody) (antibody, V domains shown, also called parental 12E11 clone) VH: QVQLKQSGPGLVQPSQSLSITCTVSGFSLTTYGVHWVRQSPGKGLEWLGVIWSGGSTDCNGAFISRLSIIKDNSKSQVFFKMNSLQADDTAIYYCARMTHWYFDVWGTGTTVTVSS VL: DIVMTQSQKFMSTTVGDRVSITCKASQNVNTAVAWYQQKPGQSPKLLIYSASYRYTGVPDRFTGSGSGTDFTLTISNMQSEDLADYFCQQYSNYPLTFGAGTKLELK	230

Please report the measured Flow data for Nectin-4 5D9H/5D9L (recombinant chimeric antibody) (antibody, V domains shown, also called Nectin-4 5D9 chimeric mAb) VH: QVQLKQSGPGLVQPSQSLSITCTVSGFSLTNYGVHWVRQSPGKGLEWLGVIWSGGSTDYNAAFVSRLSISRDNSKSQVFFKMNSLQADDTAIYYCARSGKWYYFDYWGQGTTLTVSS VL: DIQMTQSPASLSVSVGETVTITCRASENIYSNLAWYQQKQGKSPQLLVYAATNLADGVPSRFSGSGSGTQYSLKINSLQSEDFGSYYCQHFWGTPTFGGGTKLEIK 189
